Test system: female stress-derived axillary odor
Test: Cross-adaptation of female stress-derived axillary odor (odor panel, magnitude estimation of perceived intensity); further: key: best: Best = Superior Cross-Adaptation; good: Good = Adequate Cross-Adaptation; poor: Poor = Ineffective Cross-Adaptation
Type: in vivo, human
Conditions: female stress-derived odor perceived by women
Description: The procedure relies upon an individual constantly sniffing an adapting agent, such as a fragrance, and occasionally a test odorant. Perceived intensity of the test odorant is obtained by using psychophysical, magnitude-estimation procedures. […] Production of odor: To produce quantities of stress-derived axillary odor for testing purposes, we hydrolyzed the apocrine secretion. […]
Reported Metric: Magnitude of Reduction of Intensity of Female Stress-Derived Odor (FSDO), Females

INSERT INTO assay_data (molecule, val) VALUES
  ('CC(=O)C=CC1C(C)=CCCC1(C)C (stereo not shown)', 'good'),
  ('CC=CC(=O)C1C(C)=CCCC1(C)C (stereo not shown)', 'good'),
  ('CCOC(=O)C=C(C)CC (single isomer, unassigned) [E-isomer of 3-methyl-2-pentenoic acid ethyl ester, 3-methyl-2-pentenoic acid ethyl ester]', 'poor'),
  ('C=CCc1ccc(O)c(OC)c1 [Eugenol, 2-methoxy-1-hydroxy-4-allylbenzene]', 'good');
